# test.system: T1, human MSR1 extracellular domain expressed with a N-terminal nonahistidine tag (His9-hMSR1); R&D Systems, Cat … (human, UniProt P21757 77-451)
# T1 construct: extracellular domain; Bought reagent; also called His-hMSR1; 9xHis-hMSR1
# T1 sequence: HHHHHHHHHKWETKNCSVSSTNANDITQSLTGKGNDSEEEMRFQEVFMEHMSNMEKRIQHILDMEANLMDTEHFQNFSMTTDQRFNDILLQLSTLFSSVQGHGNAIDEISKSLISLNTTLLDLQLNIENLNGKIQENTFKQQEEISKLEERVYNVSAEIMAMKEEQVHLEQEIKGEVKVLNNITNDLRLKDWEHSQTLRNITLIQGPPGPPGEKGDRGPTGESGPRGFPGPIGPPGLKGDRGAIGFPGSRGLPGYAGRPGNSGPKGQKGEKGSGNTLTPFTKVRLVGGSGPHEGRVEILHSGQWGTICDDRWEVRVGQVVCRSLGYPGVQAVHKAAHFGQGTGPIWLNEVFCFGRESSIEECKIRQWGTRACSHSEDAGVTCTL
# assay.remarks: SPR Biacore T200, 25 C, antibody captured by anti-human Fc, His9-hMSR1 injected; no dissociation seen, kd fixed at 1.00E-05
pKd: −log10 of the molar value.
# pKd values compiled below
endpoint.label: pKd

binder	endpoint.label	endpoint.value
H1H27732P-N297Q (antibody, human IgG1, V domains shown, human IgG1 Fc with N297Q (EU)) VH: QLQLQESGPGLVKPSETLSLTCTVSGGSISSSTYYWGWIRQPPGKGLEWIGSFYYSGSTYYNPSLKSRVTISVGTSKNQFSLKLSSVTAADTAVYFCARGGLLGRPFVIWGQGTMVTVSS VL: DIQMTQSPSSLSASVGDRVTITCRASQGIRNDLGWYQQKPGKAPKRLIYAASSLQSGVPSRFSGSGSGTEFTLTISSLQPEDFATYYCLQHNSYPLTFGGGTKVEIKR	pKd	≥ 10.35
H1H21234N-N297Q (antibody, human IgG1, V domains shown, human IgG1 Fc with N297Q (EU); also called H1H21234-N297Q) VH: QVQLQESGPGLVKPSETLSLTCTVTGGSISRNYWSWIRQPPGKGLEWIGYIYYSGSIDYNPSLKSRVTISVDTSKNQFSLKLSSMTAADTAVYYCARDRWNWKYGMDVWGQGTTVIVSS VL: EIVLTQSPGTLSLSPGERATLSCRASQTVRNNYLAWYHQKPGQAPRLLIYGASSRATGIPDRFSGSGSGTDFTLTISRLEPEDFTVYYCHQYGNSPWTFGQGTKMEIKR	pKd	≥ 10.34
H1H27732P-N297Q-LP1 (antibody, human IgG1, V domains shown, LXR agonist linker-payload LP1 clicked to azido-PEG3-amine on Q295 and Q297 (EU) of the heavy chain constant region, antibody-drug conjugate; human IgG1 Fc with N297Q (EU); also called H1H27732P-LP1) VH: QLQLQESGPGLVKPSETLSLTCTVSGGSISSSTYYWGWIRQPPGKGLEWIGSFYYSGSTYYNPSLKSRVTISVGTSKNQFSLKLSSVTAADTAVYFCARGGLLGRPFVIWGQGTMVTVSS VL: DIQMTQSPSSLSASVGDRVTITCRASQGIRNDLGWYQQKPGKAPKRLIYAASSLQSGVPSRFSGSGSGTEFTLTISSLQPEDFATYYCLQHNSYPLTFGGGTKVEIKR	pKd	≥ 10.18
H1H27731P-N297Q-LP1 (antibody, V domains shown, LXR agonist linker-payload LP1 clicked to azido-PEG3-amine on Q295 and Q297 (EU) of the heavy chain constant region, antibody-drug conjugate; human IgG1 Fc with N297Q (EU); also called H1H27731P-LP1) VH: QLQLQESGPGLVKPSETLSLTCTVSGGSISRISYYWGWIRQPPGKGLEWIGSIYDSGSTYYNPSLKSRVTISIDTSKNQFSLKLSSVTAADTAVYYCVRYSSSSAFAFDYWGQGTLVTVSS VL: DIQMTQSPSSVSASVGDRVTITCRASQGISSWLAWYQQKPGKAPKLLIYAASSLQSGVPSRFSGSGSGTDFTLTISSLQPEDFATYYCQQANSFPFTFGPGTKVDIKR	pKd	≥ 10.11
H1H27754P-N297Q (antibody, human IgG1, V domains shown, human IgG1 Fc with N297Q (EU)) VH: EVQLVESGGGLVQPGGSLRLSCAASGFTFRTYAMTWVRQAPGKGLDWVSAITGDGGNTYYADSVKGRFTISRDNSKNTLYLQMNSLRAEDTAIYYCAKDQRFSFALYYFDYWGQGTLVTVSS VL: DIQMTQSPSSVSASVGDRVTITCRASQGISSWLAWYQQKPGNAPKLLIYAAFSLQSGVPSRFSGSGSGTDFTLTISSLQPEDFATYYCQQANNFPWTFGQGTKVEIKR	pKd	≥ 10.30
H1H21234N-N297Q-LP1 (antibody, human IgG1, V domains shown, LXR agonist linker-payload LP1 clicked to azido-PEG3-amine on Q295 and Q297 (EU) of the heavy chain constant region, antibody-drug conjugate; human IgG1 Fc with N297Q (EU); also called H1H21234N-LP1) VH: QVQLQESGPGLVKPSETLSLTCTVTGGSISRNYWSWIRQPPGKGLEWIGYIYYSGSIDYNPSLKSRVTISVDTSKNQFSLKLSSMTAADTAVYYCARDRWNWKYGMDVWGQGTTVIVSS VL: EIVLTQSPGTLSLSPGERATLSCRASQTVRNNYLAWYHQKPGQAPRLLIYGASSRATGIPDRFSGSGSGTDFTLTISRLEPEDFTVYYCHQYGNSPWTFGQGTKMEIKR	pKd	≥ 10.69
H1H27754P-N297Q-LP1 (antibody, human IgG1, V domains shown, LXR agonist linker-payload LP1 clicked to azido-PEG3-amine on Q295 and Q297 (EU) of the heavy chain constant region, antibody-drug conjugate; human IgG1 Fc with N297Q (EU); also called H1H27754P-LP1) VH: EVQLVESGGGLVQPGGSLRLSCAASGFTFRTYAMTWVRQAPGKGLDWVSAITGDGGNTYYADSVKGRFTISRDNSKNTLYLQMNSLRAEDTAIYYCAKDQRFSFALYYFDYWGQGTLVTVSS VL: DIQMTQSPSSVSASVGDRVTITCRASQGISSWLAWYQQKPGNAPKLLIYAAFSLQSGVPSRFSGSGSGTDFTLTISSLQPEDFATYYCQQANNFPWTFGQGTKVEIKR	pKd	≥ 10.25
